Here the recorded viability at 48 h, 10 µM is given for each entry.
Assay: Cytotoxicity screening at 10 µM (MTT)
Format: cell-based, Macaca mulatta
Details: Macaca mulatta, LLC-MK2 cells, read-out: Cell line (viability %) LLC-MK2
recordedMetric: viability at 48 h, 10 µM (%)

INSERT INTO results (compound, recordedmetric, obsvalue) VALUES
  ('S=c1n(Cc2ccccc2)c(-c2ccccc2)c(-c2ccccc2)n1Cc1ccccc1 [Compound 10c]', 'viability at 48 h, 10 µM', 15.8),
  ('c1c[n+](C23CC4CC(CC(C4)C2)C3)cn1C12CC3CC(CC(C3)C1)C2 [Compound 2a, 1,3-diadamantyl imidazolium bromide, reference compound]', 'viability at 48 h, 10 µM', 7.8),
  ('COc1cccc(Cn2c[n+](Cc3ccccc3)c(-c3ccccc3)c2-c2ccccc2)c1 [9c[PF6]]', 'viability at 48 h, 10 µM', 7.6),
  ('COc1cccc(Cn2c(-c3ccccc3)c(-c3ccccc3)n(Cc3ccccc3)c2=S)c1 [Compound 10d]', 'viability at 48 h, 10 µM', 53.6),
  ('c1c[n+](OC23CC4CC(CC(C4)C2)C3)cn1OC12CC3CC(CC(C3)C1)C2 [Compound 2b]', 'viability at 48 h, 10 µM', 7.8),
  ('Cc1c(C)n(Cc2ccccc2)c(=S)n1Cc1ccccc1 [Compound 10a]', 'viability at 48 h, 10 µM', 64.9),
  ('COc1cccc(Cn2c(C)c(C)n(Cc3ccccc3)c2=S)c1 [Compound 10b]', 'viability at 48 h, 10 µM', 9.1),
  ('c1ccc(Cn2c[n+](Cc3ccccc3)c(-c3ccccc3)c2-c2ccccc2)cc1 [9b[PF6]]', 'viability at 48 h, 10 µM', 8),
  ('Cc1c(C)[n+](Cc2ccccc2)cn1Cc1ccccc1 [Compound 1a, lepidiline A, reference compound]', 'viability at 48 h, 10 µM', 76.3);

* * *

Experiment: Cytotoxicity MTT assay (0.1–1000 µM), CC50
Type: cell-based, Macaca mulatta
Details: Macaca mulatta, LLC-MK2 cells, LLC-MK2, MTT, 48 h; read-out: CC50 Normal Cell Lines LLC-MK2
recordedMetric: log10(CC50 at 48 h) (log10 of the value in µM)

INSERT INTO measurements (smilesstring, recordedmetric, obsvalue) VALUES
  ('Cc1c(C)[n+](OCc2ccccc2)cn1Cc1cccc(OC(F)(F)F)c1.[Br-]', 'log10(CC50 at 48 h)', 2.41),
  ('Cc1c(C)[n+](Cc2cccc(C(F)(F)F)c2)cn1Cc1ccccc1.[Cl-]', 'log10(CC50 at 48 h)', 1.82),
  ('Cc1c(C)[n+](OCc2ccccc2)cn1Cc1ccc(C(F)(F)F)cc1.[Br-]', 'log10(CC50 at 48 h)', 0.88),
  ('Cc1c(C)[n+](OCc2ccccc2)cn1Cc1ccccc1C(F)(F)F.[Br-]', 'log10(CC50 at 48 h)', 1.74),
  ('Cc1c(C)[n+](Cc2cccc(OC(F)(F)F)c2)cn1Cc1ccccc1.[Cl-]', 'log10(CC50 at 48 h)', 1.77),
  ('Cc1c(C)[n+](OCc2ccccc2)cn1Cc1cccc(F)c1.[Br-]', 'log10(CC50 at 48 h)', 2.51);

* * *

Test system: Human herpesvirus 1 (HSV-1)
Assay: Antiviral screening at 10 µM
Assay type: cell-based
Conditions: Human alphaherpesvirus 1, antiviral screening, HSV-1-infected cells, read-out: Cell line (viability %) HSV-1
Here the recorded viability at 10 µM is given for each entry.
recordedMetric: viability at 10 µM

INSERT INTO results (molecule, recordedmetric, obsvalue) VALUES
  ('c1c[n+](OC23CC4CC(CC(C4)C2)C3)cn1OC12CC3CC(CC(C3)C1)C2 [Compound 2b]', 'viability at 10 µM', '14.1%'),
  ('Cc1c(C)n(Cc2ccccc2)c(=S)n1Cc1ccccc1 [Compound 10a]', 'viability at 10 µM', '29.7%'),
  ('c1c[n+](C23CC4CC(CC(C4)C2)C3)cn1C12CC3CC(CC(C3)C1)C2 [Compound 2a, 1,3-diadamantyl imidazolium bromide, reference compound]', 'viability at 10 µM', '13.9%'),
  ('COc1cccc(Cn2c(C)c(C)n(Cc3ccccc3)c2=S)c1 [Compound 10b]', 'viability at 10 µM', '16.5%'),
  ('c1ccc(Cn2c[n+](Cc3ccccc3)c(-c3ccccc3)c2-c2ccccc2)cc1 [9b[PF6]]', 'viability at 10 µM', '11.7%'),
  ('COc1cccc(Cn2c[n+](Cc3ccccc3)c(-c3ccccc3)c2-c2ccccc2)c1 [9c[PF6]]', 'viability at 10 µM', '13.3%'),
  ('COc1cccc(Cn2c(-c3ccccc3)c(-c3ccccc3)n(Cc3ccccc3)c2=S)c1 [Compound 10d]', 'viability at 10 µM', '14.6%'),
  ('COc1cccc(Cn2c[n+](Cc3ccccc3)c(C)c2C)c1 [Compound 1c, lepidiline C, reference compound]', 'viability at 10 µM', '18.6%'),
  ('S=c1n(Cc2ccccc2)c(-c2ccccc2)c(-c2ccccc2)n1Cc1ccccc1 [Compound 10c]', 'viability at 10 µM', '14.7%');
